- target or test system: UniProt P07333
- run description: Competition binding assay, CSF1R Kd
- Set-up: made in house
pKd: −log10 of the molar value.
Let's look at some compounds and their measured pKd.

>  <smiles text>
N#Cc1cnc2c(c1)ncn2Cc1ccc2nc(N[C@@H]3CCCC[C@H]3O)sc2c1

>  <pKd>
7.70 to 8.30

$$$$
>  <smiles text>
COc1ccn2c(Cc3ccc4nc(N[C@@H]5CCCC[C@H]5O)sc4c3)cnc2c1

>  <pKd>
7.70 to 8.30

$$$$
>  <smiles text>
COc1cc2ncn(Cc3ccc4nc(N[C@@H]5c6ccccc6C[C@H]5O)sc4c3)c2cc1OC

>  <pKd>
≥ 8.30

$$$$

Would you kindly look at the next entry?
Query: Name the recorded pKd of the item `OC[C@H](Nc1nc2ccc(Cn3cnc4cccnc43)cc2s1)C1CCCCC1` in your answer.
Response: 7.70 to 8.30

---

Item-by-item account of pIC50
- target or test system: UniProtKB P07333
- run description: HEK293 CSF1R phosphorylation MSD assay
- Assay type: cell-based
- Design: expressed in transfected cells; host or cells: HEK293
- condition: 2 h compound, human M-CSF 50 ng/mL for 5 min; read-out: HEK293 pCSF1R M-CSF MSD:IC50
pIC50: −log10 of the molar value.

Use the examples below as a reference point.
>  <molecule>
Nc1nc2cccnc2n1Cc1ccc2nc(N[C@@H]3CCCC[C@H]3O)sc2c1

>  <result>
< 6.30

$$$$
>  <molecule>
O=C1CCCC[C@H]1Nc1nc2ccc(Cn3cnc4cccnc43)cc2s1

>  <result>
6.70 to 7.30

$$$$
>  <molecule>
COc1cc2ncn(Cc3ccc4nc(N[C@@H]5CCCC5O)sc4c3)c2cc1OC (stereo in doubt)

>  <result>
6.30 to 6.70

$$$$
>  <molecule>
O[C@@H]1Cc2ccccc2[C@H]1Nc1nc2ccc(Cn3cnc4cccnc43)cc2o1

>  <result>
6.70 to 7.30

$$$$
>  <molecule>
O[C@H]1CCCC[C@H]1Nc1nc2ccc(Cn3cnc4ccccc43)cc2s1 (racemic)

>  <result>
6.70 to 7.30

$$$$

Now take the following molecule into account.
Query: Determine its reported pIC50: `COc1cc2ncn(Cc3ccc4nc(N(C)C5CCCCC5)sc4c3)c2cc1OC`
Response: 6.30 to 6.70

---

- target or test system: KIT (Homo sapiens, UniProt P10721)
- Construct: made in house
- Sequence (P10721 26-976): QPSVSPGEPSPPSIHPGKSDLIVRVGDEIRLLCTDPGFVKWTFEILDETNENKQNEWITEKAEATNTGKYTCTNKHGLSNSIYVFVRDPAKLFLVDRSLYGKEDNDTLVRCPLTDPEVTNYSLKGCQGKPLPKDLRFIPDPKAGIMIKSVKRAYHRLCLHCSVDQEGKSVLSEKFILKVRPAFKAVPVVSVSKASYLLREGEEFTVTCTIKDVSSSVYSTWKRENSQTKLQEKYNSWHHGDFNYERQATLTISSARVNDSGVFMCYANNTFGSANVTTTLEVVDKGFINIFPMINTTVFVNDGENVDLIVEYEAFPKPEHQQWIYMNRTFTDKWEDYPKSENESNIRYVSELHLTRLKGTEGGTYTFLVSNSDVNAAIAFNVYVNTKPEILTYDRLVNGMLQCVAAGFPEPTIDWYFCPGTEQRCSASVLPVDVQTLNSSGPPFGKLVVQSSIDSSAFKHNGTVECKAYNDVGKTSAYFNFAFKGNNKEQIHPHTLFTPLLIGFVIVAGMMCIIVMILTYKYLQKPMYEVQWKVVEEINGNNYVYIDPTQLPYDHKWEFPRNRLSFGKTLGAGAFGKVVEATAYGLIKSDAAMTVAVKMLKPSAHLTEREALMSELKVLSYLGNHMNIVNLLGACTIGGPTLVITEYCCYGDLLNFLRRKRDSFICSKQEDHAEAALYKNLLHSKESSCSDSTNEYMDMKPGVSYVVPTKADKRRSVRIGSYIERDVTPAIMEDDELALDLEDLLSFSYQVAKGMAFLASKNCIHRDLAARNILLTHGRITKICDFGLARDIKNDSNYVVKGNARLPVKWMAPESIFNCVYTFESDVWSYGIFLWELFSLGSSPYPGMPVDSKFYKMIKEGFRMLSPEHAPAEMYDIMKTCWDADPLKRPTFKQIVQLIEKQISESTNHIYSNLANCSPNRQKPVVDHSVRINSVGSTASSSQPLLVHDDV
- run description: Competition binding assay, KIT Kd
- condition: competition binding
property label: Kd

Worked cases, answers included:
>  <smiles text>
Cc1ccc2c(c1)ncn2Cc1ccc2nc(N[C@@H]3CCCC[C@H]3O)sc2c1

>  <target or test system>
KIT (Homo sapiens, UniProt P10721)

>  <Kd>
100 to 500 nM

$$$$
>  <smiles text>
O[C@@H]1CCCC[C@H]1Nc1nc2c(Br)cc(Cn3cnc4cccnc43)cc2s1

>  <target or test system>
KIT (Homo sapiens, UniProt P10721)

>  <Kd>
500 to 2000 nM

$$$$
>  <smiles text>
COc1ccc2ncc(Cc3ccc4nc(N[C@@H]5CCCC[C@H]5O)sc4c3)n2c1

>  <target or test system>
KIT (Homo sapiens, UniProt P10721)

>  <Kd>
500 to 2000 nM

$$$$

Okay, next one:
Query: Give Kd for `O[C@@H]1CCCC[C@H]1Nc1nc2ccc(Cn3cnc4cc(-n5cccn5)cnc43)cc2s1`
Response: ≤ 100 nM

---

- target or test system: PDGFRβ (Homo sapiens)
- Construct: made in house
- Sequence (P09619 33-1106): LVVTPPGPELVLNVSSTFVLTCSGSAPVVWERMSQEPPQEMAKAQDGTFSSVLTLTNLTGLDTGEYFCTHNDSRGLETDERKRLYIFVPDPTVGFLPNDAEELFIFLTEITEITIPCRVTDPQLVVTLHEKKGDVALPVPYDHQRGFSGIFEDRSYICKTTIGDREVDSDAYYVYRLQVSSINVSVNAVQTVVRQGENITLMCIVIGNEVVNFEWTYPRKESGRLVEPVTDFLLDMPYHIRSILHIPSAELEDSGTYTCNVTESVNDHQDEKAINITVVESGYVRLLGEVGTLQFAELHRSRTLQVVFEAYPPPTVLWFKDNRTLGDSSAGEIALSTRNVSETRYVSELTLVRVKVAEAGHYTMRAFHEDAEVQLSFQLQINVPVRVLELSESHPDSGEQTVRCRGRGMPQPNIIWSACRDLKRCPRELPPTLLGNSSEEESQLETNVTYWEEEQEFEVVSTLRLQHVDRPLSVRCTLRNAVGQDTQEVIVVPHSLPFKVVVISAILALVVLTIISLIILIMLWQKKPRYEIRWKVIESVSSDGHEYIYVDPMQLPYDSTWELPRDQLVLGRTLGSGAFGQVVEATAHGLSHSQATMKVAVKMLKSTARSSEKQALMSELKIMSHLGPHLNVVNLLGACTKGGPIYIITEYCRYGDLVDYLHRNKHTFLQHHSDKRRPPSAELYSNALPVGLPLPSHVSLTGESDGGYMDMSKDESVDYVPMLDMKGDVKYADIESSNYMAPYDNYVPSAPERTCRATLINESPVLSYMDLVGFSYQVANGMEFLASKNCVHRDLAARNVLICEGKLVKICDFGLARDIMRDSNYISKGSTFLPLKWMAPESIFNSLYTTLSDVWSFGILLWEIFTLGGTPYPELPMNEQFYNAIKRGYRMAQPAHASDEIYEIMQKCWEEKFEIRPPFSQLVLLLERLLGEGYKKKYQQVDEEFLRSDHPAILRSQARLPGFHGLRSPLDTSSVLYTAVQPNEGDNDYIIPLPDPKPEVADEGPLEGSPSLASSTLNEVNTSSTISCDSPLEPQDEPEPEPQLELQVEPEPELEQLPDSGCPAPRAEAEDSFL
- run description: Competition binding assay, PDGFRβ Kd
pKd: −log10 of the molar value.
We begin with a simple list: items and their reported pKd.

>  <smiles text>
COc1cc2ncn(Cc3ccc4nc(NCc5ccccn5)sc4c3)c2cc1OC

>  <result>
5.70 to 6.30

$$$$
>  <smiles text>
Cn1cc(-c2nccn(Cc3ccc4nc(N[C@@H]5CCCC[C@H]5O)sc4c3)c2=O)cn1

>  <result>
6.30 to 7.30

$$$$
>  <smiles text>
COc1cc2ncn(Cc3ccc4nc(N[C@H]5CCc6ccccc65)sc4c3)c2cc1OC

>  <result>
6.30 to 7.30

$$$$
>  <smiles text>
CC(=O)c1ccc2ncn(Cc3ccc4nc(N[C@@H]5CCCC[C@H]5O)sc4c3)c2n1

>  <result>
6.30 to 7.30

$$$$
>  <smiles text>
O[C@@H]1Cc2ccccc2[C@H]1Nc1nc2ccc(Cn3cnc4cc(Br)cnc43)cc2s1

>  <result>
≥ 7.30

$$$$
>  <smiles text>
O[C@@H]1CCCC[C@H]1Nc1nc2ccc(Cn3cnc4cc(Br)cnc43)cc2o1

>  <result>
≥ 7.30

$$$$

Query: Identify measured pKd associated with `O[C@@H]1CCCC[C@H]1Nc1nc2ccc(Cn3cnc4cc(F)cnc43)cc2s1`
Response: 6.30 to 7.30

Query: Supply reported pKd belonging to this compound: `O[C@@H]1CCCC[C@H]1Nc1nc2ccc(Cn3cnc4cnccc43)cc2s1`
Response: 5.70 to 6.30

---

Listing of entries alongside the reported Kd.
- target or test system: KIT (Homo sapiens, UniProt P10721)
- Construct: made in house
- run description: Competition binding assay, KIT Kd

Solved cases (2 shown):
>  <molecule>
OC[C@H](Nc1nc2ccc(Cn3cnc4cccnc43)cc2s1)C1CCCCC1

>  <Kd>
≤ 100 nM

$$$$
>  <molecule>
COc1cc2ncn(Cc3ccc4nc(N[C@@H]5CCCC5O)sc4c3)c2cc1OC (stereo in doubt)

>  <Kd>
> 2000 nM

$$$$

Query: Give recorded Kd. `COc1cc2ncn(Cc3ccc4nc(NCCN5CCOCC5)sc4c3)c2cc1OC`
Response: > 2000 nM

Query: Give the reported value of Kd for this record: `CC(=O)c1ccc2ncn(Cc3ccc4nc(N[C@@H]5CCCC[C@H]5O)sc4c3)c2n1`
Response: ≤ 100 nM

Query: Identify measured Kd associated with `O[C@@H]1CCCC[C@H]1Nc1nc2ccc(Cn3cnc4cc(Br)cnc43)cc2s1`
Response: ≤ 100 nM

Query: Provide Kd value for the following molecule: `COc1cc2ncn(Cc3ccc4nc(NC5CCOCC5)sc4c3)c2cc1OC`
Response: 500 to 2000 nM

Query: Give the reported Kd for this molecule. `COc1cc2ncn(Cc3ccc4nc(N[C@@H]5c6ccccc6C[C@@H]5O)sc4c3)c2cc1OC`
Response: 500 to 2000 nM

Query: Consider the molecule `CC(=O)Nc1cn(Cc2ccc3nc(N[C@@H]4CCCC[C@H]4O)sc3c2)cn1` . State its measured Kd.
Response: 500 to 2000 nM

Query: Specify Kd for `O[C@@H]1CCCC[C@H]1Nc1nc2ccc(Cc3c[nH]c4ncccc34)cc2s1` and stop.
Response: > 2000 nM

Query: Tell me measured Kd for `CS(=O)(=O)c1cnc2c(c1)ncn2Cc1ccc2nc(N[C@@H]3CCCC[C@H]3O)sc2c1` please.
Response: 100 to 500 nM

Query: Tell me its Kd given `COc1cc2c(cc1-c1cnn(C)c1)ncn2Cc1ccc2nc(N[C@@H]3CCCC[C@H]3O)sc2c1` as the entry.
Response: ≤ 100 nM

Query: State its Kd: `COc1cc2ncn(Cc3ccc4nc(N[C@@H]5CCCC[C@H]5O)sc4c3)c2cc1-c1cnn(C)c1`
Response: ≤ 100 nM

Query: Look up and report measured Kd for this entry: `N#Cc1cnc2c(c1)ncn2Cc1ccc2nc(N[C@@H]3CCCC[C@H]3O)sc2c1`
Response: 100 to 500 nM

Query: Indicate its recorded Kd; the molecule in question is O[C@H]1CCCCC1Nc1nc2ccc(Cn3cnc4ccccc43)cc2s1 (stereo in doubt)
Response: 100 to 500 nM

Query: Give the value of Kd reported for the following: `ON=C1CCCC[C@H]1Nc1nc2ccc(Cn3cnc4cccnc43)cc2s1`
Response: ≤ 100 nM

Query: Give the reported value of Kd for this record: `COc1cc2ncn(Cc3ccc4nc(NCC5CCCCC5)sc4c3)c2cc1OC`
Response: ≤ 100 nM

Query: Provide Kd value for the following molecule: `O[C@@H]1Cc2ccccc2[C@H]1Nc1nc2ccc(Cn3cnc4cc(F)cnc43)cc2s1`
Response: 100 to 500 nM

---

- target or test system: CSF1R (Homo sapiens, UniProt P07333)
- Sequence (P07333 20-972): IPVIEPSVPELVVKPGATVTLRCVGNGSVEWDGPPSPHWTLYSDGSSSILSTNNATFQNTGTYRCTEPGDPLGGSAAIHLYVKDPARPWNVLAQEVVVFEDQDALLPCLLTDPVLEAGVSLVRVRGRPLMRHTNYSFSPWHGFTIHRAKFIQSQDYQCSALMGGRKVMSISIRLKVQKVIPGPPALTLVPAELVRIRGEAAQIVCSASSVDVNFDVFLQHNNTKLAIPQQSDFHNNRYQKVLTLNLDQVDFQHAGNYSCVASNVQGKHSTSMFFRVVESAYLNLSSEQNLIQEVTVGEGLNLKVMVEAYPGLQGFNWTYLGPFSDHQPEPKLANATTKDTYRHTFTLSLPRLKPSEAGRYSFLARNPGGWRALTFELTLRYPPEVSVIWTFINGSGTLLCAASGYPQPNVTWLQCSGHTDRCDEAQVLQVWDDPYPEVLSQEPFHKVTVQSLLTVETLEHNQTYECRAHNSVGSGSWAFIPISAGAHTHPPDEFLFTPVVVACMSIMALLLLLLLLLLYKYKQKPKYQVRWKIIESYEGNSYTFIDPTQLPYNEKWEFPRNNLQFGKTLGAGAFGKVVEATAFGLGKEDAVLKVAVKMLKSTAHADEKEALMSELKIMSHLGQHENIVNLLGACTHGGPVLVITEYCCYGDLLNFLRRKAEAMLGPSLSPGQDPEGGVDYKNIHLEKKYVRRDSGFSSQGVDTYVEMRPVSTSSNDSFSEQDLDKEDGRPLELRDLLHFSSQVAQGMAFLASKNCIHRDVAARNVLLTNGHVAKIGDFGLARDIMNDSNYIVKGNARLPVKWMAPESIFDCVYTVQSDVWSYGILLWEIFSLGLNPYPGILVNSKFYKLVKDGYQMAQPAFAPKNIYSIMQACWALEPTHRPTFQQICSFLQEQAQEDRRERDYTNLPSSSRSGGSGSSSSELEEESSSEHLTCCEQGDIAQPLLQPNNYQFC
- run description: HEK293 CSF1R phosphorylation MSD assay
- Type: cell-based
- Parameters: expressed in transfected cells; host or cells: HEK293
- condition: HEK293 cells, M-CSF stimulated CSF1R phosphorylation, MSD; read-out: HEK293 pCSF1R M-CSF MSD:IC50
- Procedure: The compounds disclosed herein were tested in a CSF1R phosphorylation assay to determine their cellular potency against CSF1R. A HEK293 cell line expressing CSF1R fused to FK506 binding protein (FKBP) as a molecular tag was generated. Inhibition of CSF1R kinase activity will prevent ligand-stimulated autophosphorylation of the CSF1R-FKBP in intact cells. […]
property label: IC50

>  <smiles text>
OC[C@H]1CCCC[C@H]1Nc1nc2ccc(Cn3cnc4cc(Br)cnc43)cc2s1

>  <IC50>
50 to 200 nM

$$$$
>  <smiles text>
O[C@@H]1CCCC[C@H]1Nc1nc2ccc(Cn3cnc4cc(-n5cccn5)cnc43)cc2s1

>  <IC50>
≤ 50 nM

$$$$
>  <smiles text>
CS(=O)(=O)c1ccc2c(c1)ncn2Cc1ccc2nc(N[C@@H]3CCCC[C@H]3O)sc2c1

>  <IC50>
200 to 500 nM

$$$$
>  <smiles text>
O[C@@H]1[C@H](O)CCC[C@H]1Nc1nc2ccc(Cn3cnc4cc(F)cnc43)cc2s1

>  <IC50>
≤ 50 nM

$$$$
>  <smiles text>
O[C@@H]1CCCC[C@H]1Nc1nc2ccc(Cn3cnc4cc(N5CCOCC5)ccc43)cc2s1

>  <IC50>
50 to 200 nM

$$$$
>  <smiles text>
CON=C(C)c1ccn2c(Cc3ccc4nc(N[C@@H]5CCCC[C@H]5O)sc4c3)cnc2c1

>  <IC50>
50 to 200 nM

$$$$
>  <smiles text>
Fc1cnc2c(c1)ncn2Cc1ccc2nc(N[C@H]3C=CCCC3)sc2c1

>  <IC50>
200 to 500 nM

$$$$

From here, focus on the item given below.
Query: Query IC50 for `O[C@@H]1CCCC[C@H]1Nc1nc2ccc(Cn3cnc4cc(F)ccc43)cc2s1`
Response: ≤ 50 nM
